Where do these numbers come from? They come from paper PMC5770965.

test system: KIX domain of CBP (UniProt P45481 586-665)
Sequence (P45481 586-665): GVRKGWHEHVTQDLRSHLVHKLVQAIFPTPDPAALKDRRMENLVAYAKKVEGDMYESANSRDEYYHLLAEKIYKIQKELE
assay info: stopped-flow fluorescence (association kinetics); pseudo-first order conditions with KIX in excess over FITC-pKID; biphasic; kass,fast = gradient of the observed fast rate against KIX concentration
measurement conditions: both partners purified
Non-standard residues stand in square brackets, D forms with d. No end group written: not given here. *: point of attachment. FITC = O=C1OC2(c3ccc(O)cc3Oc3cc(O)ccc32)c2ccc(NC(=S)*)cc21; pS = N[C@@H](COP(=O)(O)O)C(=O)O
value type: kon (M⁻¹ s⁻¹)

INSERT INTO results (binder, readout_number) VALUES
  ('{FITC}-DSVTDSQKRRGILSRRP[pS]YRKILNDLSSDAP (peptide, UniProt P15337-1 116-146, looked up, also called A126G; source: synthetic peptide, bought: Biomatik) [FITC-pKID E126G]', '7.6e+06'),
  ('{FITC}-DSVTDSQKRREILSRRA[pS]YRKILNDLSSDAP (peptide, UniProt P15337-1 116-146, looked up, source: synthetic peptide, bought: Biomatik) [FITC-pKID P132A]', '7.7e+06'),
  ('{FITC}-DSVADSQKRREILSRRP[pS]YRKILNDLSSDAP (peptide, UniProt P15337-1 116-146, looked up, source: synthetic peptide, bought: Biomatik) [FITC-pKID T119A]', '7.3e+06'),
  ('{FITC}-DSVTDSQKRREILSRRP[pS]YRAILNDLSSDAP (peptide, UniProt P15337-1 116-146, looked up, source: synthetic peptide, bought: Biomatik) [FITC-pKID K136A]', '1.02e+07'),
  ('{FITC}-DSVGDSQKRREILSRRP[pS]YRKILNDLSSDAP (peptide, UniProt P15337-1 116-146, looked up, the peptide has Gly in place of the natural Thr119; also called A119G; source: synthetic peptide, bought: Biomatik) [FITC-pKID T119G]', '7.1e+06'),
  ('{FITC}-DSVTDSQKRREILSRRP[pS]YGKILNDLSSDAP (peptide, UniProt P15337-1 116-146, looked up, also called A135G; source: synthetic peptide, bought: Biomatik) [FITC-pKID R135G]', '8e+06');
